Target: recombinant human KLK5 (Homo sapiens, UniProt Q9Y337)
Sequence (Q9Y337 23-293): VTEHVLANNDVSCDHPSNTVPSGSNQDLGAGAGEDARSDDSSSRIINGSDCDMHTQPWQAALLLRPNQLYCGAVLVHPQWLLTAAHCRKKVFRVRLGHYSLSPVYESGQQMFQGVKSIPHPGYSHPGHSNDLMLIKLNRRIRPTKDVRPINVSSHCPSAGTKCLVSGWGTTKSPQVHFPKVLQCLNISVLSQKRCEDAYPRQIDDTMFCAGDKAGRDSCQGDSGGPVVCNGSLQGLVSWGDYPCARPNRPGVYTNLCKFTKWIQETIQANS
Experiment: Kallikrein (KLK) 5 enzymatic assay (Boc-VPR-AMC fluorogenic substrate)
Conditions: recombinant human KLK5 0.1 μg/well, Boc-VPR-AMC 100 μM, pH 7.5, room temperature, 1% DMSO; tested a minimum of three times
pIC50: −log10 of the molar value.
pIC50 by entry:

Nc1nccc2ccc(-c3ccc4c(c3)c(COc3ccccc3CC(=O)O)nn4C3CCNC3)cc12 (stereo not shown) [Compound 91a] ... > 6.00

Request: If you can, please state the reported pIC50 value of COc1ccc(O[C@@H]2CCc3ccc(-c4cccc5c(N)nccc45)cc32)c(CC(=O)O)c1 [Compound 431c] .
Response: > 6.00

Request: If you can, please state the reported pIC50 value of COCCN1CCC(n2nc3ccc(-c4cccc5c(N)nccc45)cc3c2COc2ccccc2CC(=O)O)CC1 [Compound 134c] .
Response: > 6.00

Request: If you can, please state the reported pIC50 value of CC(C)n1nc(C(=O)Nc2ccccc2CC(=O)O)c2cc(-c3ccc4ccnc(N)c4c3)ccc21 [Compound 63d] .
Response: 5.00 to 6.00

Request: If you can, please state the reported pIC50 value of COc1ccc(OCc2c3cc(-c4ccc5ccnc(N)c5c4)ccc3nn2C2CCC2)c(CC(=O)O)c1 [Compound 157d] .
Response: 5.00 to 6.00

Request: If you can, please state the reported pIC50 value of Nc1nccc2ccc(-c3ccc4c(c3)C(COc3ccccc3CC(=O)O)CC43CCCC3)cc12 (stereo not shown) [Compound 402a] .
Response: 5.00 to 6.00

Request: If you can, please state the reported pIC50 value of COc1c(-c2ccc3c(c2)c(COc2ccccc2CC(=O)O)nn3C(C)C)ccnc1CN [Compound 326d] .
Response: > 6.00
